method-description: gradient 5% acetonitrile 3 min, to 50% in 2 min, to 85% in 15 min, held 3 min, 100 µL/min
reported-conditions: column: Zorbax Extend-C18 2.1 x 50 mm; eluents: water / acetonitrile, 0.1% formic acid
Catalogue of RP-LC retention time values
reported-property: RP-LC retention time (s)

| molecule | numeric-value |
| --- | --- |
| CC(C)CN1C(=O)c2ccccc2C(C(=O)NCCN2CCN(C)CC2)C1c1cccs1 (centres undefined) | 617 |
| O=C(Cc1nnc(-c2ccsc2)o1)N1CCc2ccccc2C1 | 780 |
| COc1ccc(C2Cn3nnc(C(=O)N4CCC(C(=O)NC5CCCC5)CC4)c3CO2)cc1 (centres undefined) | 769 |
| COc1ccc(NC(=O)N2CCC(N3C[C@H]4C[C@H](C3)[C@H]3CCCC(=O)N3C4)CC2)cc1OC | 611 |
| CC(C)NC(=O)N1CC(c2nc(-c3ccccc3)no2)C2(CCOCC2)C1 (centres undefined) | 715 |
| COc1ccc(-c2cc(N3CCN(C(=O)NC(C)C)CC3)ncn2)cc1OC | 602 |
| O=C(CCN1C(=O)c2cccnc2Sc2ccccc21)NCCc1c[nH]c2ccccc12 | 746 |
| Cc1nnsc1C(=O)N1CCC(CNC(=O)c2ccccc2C(F)(F)F)CC1 | 674 |
| COc1ccc(N2CCN(C(=O)CN3C(=O)c4ccccc4Sc4ncccc43)CC2)cc1 | 725 |
| CCC1CN(C(=O)N2CCC(C(=O)NCCCN3CCCC3)CC2)c2ccccc2O1 (centres undefined) | 627 |
| O=c1n(CCOc2ccccc2)nc2c(S(=O)(=O)N3CCN(c4ccc(F)cc4)CC3)cccn12 | 1000 |
| CS(=O)(=O)c1ccc2nc(NC(=O)c3csc(-n4cccc4)n3)sc2c1 | 849 |
| CCCNC(=O)c1cc(C)nc2ccc(Br)cc12 | 718 |
| Cc1ccc(-n2nc(N3CCN(C(=O)Nc4cccc(C)c4)CC3)ccc2=O)cc1 | 820 |
| O=C(CCn1nnc2cc(-c3noc(-c4ccccc4F)n3)ccc21)N1CCCC1 | 865 |
| CCC(c1cccs1)N1C(=O)[C@H]2CN(S(=O)(=O)c3cccc(OC)c3)C[C@H]2C1=O (some centres undefined) | 1010 |
| CCn1cnc(S(=O)(=O)N2CCC(C(=O)NCc3ccc(Cl)cc3)CC2)c1 | 729 |
| COc1ccccc1-c1nc(Cn2nnc(-c3nc(-c4cccs4)no3)c2C)c(C)o1 | 1050 |
| C[C@@H](NC(=O)c1ccc(F)c(F)c1)C(=O)NCc1cscn1 | 648 |

----------
method-description: gradient 5% acetonitrile 3 min, to 50% in 2 min, to 85% in 15 min, held 3 min, 100 µL/min
reported-conditions: column: Zorbax Extend-C18 2.1 x 50 mm; eluents: water / acetonitrile, 0.1% formic acid

| structure-as-smiles | RP-LC retention time |
| --- | --- |
| O=C(NCC1CC1)c1cn(-c2ccc(NC(=O)C3CC3)cn2)cn1 | 651 s |
| O=C(NCCN1CCOCC1)C1CCN(c2nccnc2Sc2ccccc2)CC1 | 627 s |
| O=C(c1n[nH]c2ccccc12)N1CCn2c(nnc2-c2ccccc2)C1 | 664 s |
| Cc1ccc(SCC(=O)Nc2nnc(Cc3ccc4c(c3)OCO4)o2)cc1 | 780 s |

----------
method-description: gradient 5% acetonitrile 3 min, to 50% in 2 min, to 85% in 15 min, held 3 min, 100 µL/min
reported-conditions: column: Zorbax Extend-C18 2.1 x 50 mm; eluents: water / acetonitrile, 0.1% formic acid
reported-property: RP-LC retention time (s)

| compound | reading-unit | numeric-value |
| --- | --- | --- |
| CCCNC(=O)CCC1CCN(S(=O)(=O)c2ccccc2)CC1 | s | 784 |
| Cc1ccc(Nc2nc(C(=O)NCCc3c(C)noc3C)nc3ccccc23)cc1 | s | 717 |
| O=C(NCCC1=CCCCC1)C1CCN(c2cnc3nccnc3c2)CC1 | s | 737 |
| Cc1cc(N2CCN(S(=O)(=O)c3cc(F)ccc3C)CC2)nc(N2CCCCC2)n1 | s | 785 |
| Cc1ccccc1C(=O)N1CC(C(=O)NCC(C)C)C(c2cccc(C(F)(F)F)c2)C1 (stereo unspecified) | s | 907 |
| CSc1ccc(-c2noc(Cn3ncn4nc(-c5ccc(C)cc5C)cc4c3=O)n2)cc1 | s | 1270 |
| COc1ccc(CNC(=O)Nc2ccc(-c3nc(-c4ccc(C)cc4C)co3)cc2)cc1 | s | 1180 |
| CC(C)c1ccccc1NC(=O)CN1C(=O)NC2(CCCCC2)C1=O | s | 807 |
| Cc1ccc(CN2C(=O)C3CCCCC3C2=O)cc1S(=O)(=O)N1CCN(c2ccccn2)CC1 (stereo unspecified) | s | 724 |
| CC(=O)N1CCc2cc(N3CC(C(=O)NCC(C)C)CC3=O)ccc21 (stereo unspecified) | s | 643 |
| Cn1cc(-c2cc3n(n2)CCC(=O)N3CC(=O)NCc2ccccc2Cl)c2ccccc21 | s | 830 |
| Cc1cc(OCC(=O)Nc2ccccc2C#N)nc(-c2ccc(F)cc2)n1 | s | 964 |
| CS(=O)(=O)c1cccc(CNc2nc(Nc3ccc4c(c3)CCC(=O)N4)ncc2C(F)(F)F)c1 | s | 737 |
| OC(COCC(c1ccccc1)c1ccccc1)Cn1cnc2ccccc21 (stereo unspecified) | s | 639 |
| Cn1ccc2cc(S(=O)(=O)N3CCCC(C(=O)NC4CCN(Cc5ccccc5)CC4)C3)ccc21 (stereo unspecified) | s | 685 |
| CCOc1ccccc1NC(=O)c1c(O)c2cccnc2n(-c2ccccc2)c1=O | s | 1330 |
| COCCN1C(=O)CCC2(C(=O)NCc3ccc(Cl)cc3)CCCC=C12 (stereo unspecified) | s | 787 |
| Cc1cccc(NC(=O)CSc2nnc(NC(=O)CN(C)S(C)(=O)=O)s2)c1C | s | 618 |
| CCc1ccc(Oc2cc(N3CCC(C(=O)Nc4ccc(C)c(C)c4)CC3)ncn2)cc1 | s | 1160 |
| CN1C(=O)c2cccn2CC1CNC(=O)Nc1ccc2c(c1)OCCO2 (stereo unspecified) | s | 624 |
| CCC(C)NC(=O)N1CC(n2cc(C(=O)NCC3CC3)nn2)C1 (stereo unspecified) | s | 662 |
| O=C1NCCc2c1[nH]c1ccccc21 | s | 750 |
| CC(C)c1cccc(N2C=C(C(=O)N3CCOCC3)S(=O)(=O)c3ccccc32)c1 | s | 878 |
| Cc1cc(F)ccc1NC(=O)CCNc1cnc2cnccn12 | s | 578 |
| Cc1cccc(CNC2=NCCNC23CCN(S(=O)(=O)c2ccc(Cl)cc2)CC3)c1 | s | 762 |
| COc1ccc(Cl)cc1C(=O)NC1CCN(c2cc(-c3cccs3)[nH]n2)C1 (stereo unspecified) | s | 802 |

----------
method-description: gradient 5% acetonitrile 3 min, to 50% in 2 min, to 85% in 15 min, held 3 min, 100 µL/min
reported-conditions: column: Zorbax Extend-C18 2.1 x 50 mm; eluents: water / acetonitrile, 0.1% formic acid
Catalogue of RP-LC retention time values

| compound | reading-unit | RP-LC retention time |
| --- | --- | --- |
| Oc1ccc2c3c1O[C@H]1c4[nH]c5ccccc5c4C[C@@]4(O)C(C2)N(CC2CC2)CCC314 (stereo partly specified) | s | 692 |
| Cc1ccc(-c2cc(N3CCN(C(=O)c4ccccc4Br)CC3)ncn2)cc1 | s | 696 |
| CNC(=O)c1ccsc1NC(=O)CN1C(=O)c2ccccc2C1=O | s | 701 |
| COc1ccc(C2c3[nH]c4ccccc4c3CCN2C(=O)c2ccncc2)cc1 (stereo unspecified) | s | 877 |
| O=C(Nc1ccc2c(c1)OCCO2)c1cccc2c1CCN2C(=O)Nc1ccc(F)cc1 | s | 909 |
| O=c1c2cc(-c3ccc(F)cc3)nn2ccn1Cc1noc(CN2CCCCCC2)n1 | s | 683 |

----------
Catalogue of RP-LC retention time values
method-description: gradient 5% acetonitrile 3 min, to 50% in 2 min, to 85% in 15 min, held 3 min, 100 µL/min
reported-conditions: column: Zorbax Extend-C18 2.1 x 50 mm; eluents: water / acetonitrile, 0.1% formic acid

| molecule | RP-LC retention time (s) |
| --- | --- |
| CCCS(=O)(=O)N1CCc2ccc(NC(=O)Oc3ccccc3)cc2C1 | 878 |
| CN(C)S(=O)(=O)c1ccc2c(c1)N(CC(=O)Nc1ccc3c(c1)OCO3)C(=O)C1CCCCN21 (stereo not drawn) | 877 |
| Cc1ccc(C)c2sc(N(C)CC(=O)Nc3ccc(-n4cnnn4)cc3)nc12 | 896 |

----------
method-description: gradient 5% acetonitrile 3 min, to 50% in 2 min, to 85% in 15 min, held 3 min, 100 µL/min
reported-conditions: column: Zorbax Extend-C18 2.1 x 50 mm; eluents: water / acetonitrile, 0.1% formic acid
Catalogue of RP-LC retention time values

| compound | reading-unit | RP-LC retention time |
| --- | --- | --- |
| c1ccc(-c2nc3ncc4c(n3n2)CCCCC4)cc1 | s | 892 |
| O=C(CCCc1nnc(C(=O)Nc2ccccc2)s1)NCCc1c[nH]c2ccc(Cl)cc12 | s | 889 |
| Cc1ccc(CNC(=O)C2CCN(S(=O)(=O)c3cc(-c4noc(C)n4)cs3)CC2)cc1 | s | 702 |
| COc1cccc(C(=O)N2C[C@@H]3C[C@H](NC(=O)c4ccccc4)[C@H]2C3)c1OC | s | 682 |
| Cc1nn(C(C)C(=O)NCCN(C)Cc2ccccc2)c(=O)c2c(C)n(-c3ccccc3)nc12 (stereo not given) | s | 686 |

Cited source for all entries: the METLIN SMRT retention time set (Domingo-Almenara et al. 2019)
